The reported numbers originate from PubChem BioAssay AID1159564.

# Tested on: L. donovani-infected THP-1 macrophages, intracellular amastigote imaging
# test.summary: antileishmanial activity in infected THP-1 macrophages – imaging, THP-1 host macrophages, host toxicity (AID 1159564)
# condition.details: measured here: THP-1 host cell toxicity
rule met if IC50 is below 10 µM. rule not met if not; exact matches included in rule not met.

{"columns": ["molecule", "label"],
 "data": [
  ["CCCCc1cc(Nc2cc(C3CCC3)[nH]n2)nc(N2CCC2C(N)=O)n1 (stereo unspecified)", "rule met"]
]}

Alright, here's another molecule for you.
Just wondering, is IC50 of "COc1ccc(-c2nc3ncccc3o2)cc1NC(=O)c1cccs1" below 10 µM?
rule not met

---

# Test system: L. donovani-infected THP-1 macrophages, intracellular amastigote imaging
# test.summary: antileishmanial activity in infected THP-1 macrophages – imaging, THP-1 host macrophages, host toxicity (AID 1159564)
# condition.details: measured here: THP-1 host cell toxicity
property.label: IC50 (µM)
# output: bare number, implied unit µM

GET /values?readout=IC50&item= "CC(=O)Nc1ccc(Nc2nccc(-c3cnn4ncccc34)n2)cc1C(F)(F)F"
0.01

Also, "N#Cc1cccc(CNc2ccc(-c3cnn(CC4CC4)c(=O)c3C#N)cc2)c1" please.
6.3

Try the compound "CNS(=O)(=O)c1ccccc1Nc1nc(Nc2cc(C)nn2C)ncc1Cl"
0.2

Next up: "CCN(Cc1ccncc1)Cc1ccc(NC(=O)c2cc(-c3ccc(F)cc3)n[nH]2)cc1"
5

Likewise for COc1ccc(Nc2nc(-c3ccccn3)cc(N3CCCC(O)C3)n2)cc1 (configuration not stated) ?
25

---

# Test system: L. donovani-infected THP-1 macrophages, intracellular amastigote imaging
# test.summary: antileishmanial activity in infected THP-1 macrophages – imaging, THP-1 host macrophages, host toxicity (AID 1159564)
# condition.details: measured here: THP-1 host cell toxicity
property.label: IC50 (µM)
Field: numeric (µM). Do not append units.

{"columns": ["compound", "property.label", "result.units", "reading"],
 "data": [
  ["O=C(CN1CCN(c2ccccn2)CC1)Nc1cc(S(=O)(=O)N2CCCCCC2)ccc1Cl", "IC50", "µM", 50],
  ["CN1CCC(N(C)c2nccc(N3CCN(C(=O)c4cccc(-c5cccnc5)c4)CC3)n2)CC1", "IC50", "µM", 7.9],
  ["Oc1c(-c2n[nH]c(Cc3ccc(Cl)cc3)n2)ncc2cccnc12", "IC50", "µM", 20],
  ["COc1ccc2ncc(F)c(NC(=O)C3(O)CCC(NCc4ccc5c(c4)OCCO5)CC3)c2n1 (stereo not given)", "IC50", "µM", 20]
]}

Let us move to another entry and its IC50.
Which measured IC50 belongs to "COCCn1c(-c2ccccc2)cnc1NCc1ccccc1OC" , tested on L. donovani-infected THP-1 macrophages, intracellular amastigote imaging?
50

---

# Test system: L. donovani-infected THP-1 macrophages, intracellular amastigote imaging
# test.summary: antileishmanial activity in infected THP-1 macrophages – imaging, THP-1 host macrophages, host toxicity (AID 1159564)
# condition.details: measured here: THP-1 host cell toxicity
Catalogue of pIC50 values
Here pIC50 is given on a logarithmic scale as minus log10 of the concentration in mol/L.

{"columns": ["query.smiles", "pIC50"],
 "data": [
  ["Oc1c(-c2n[nH]c(CCc3ccccc3)n2)ncc2cccnc12", 4.70],
  ["Cc1cccnc1CN1CCN(CCCOc2ccc(-c3ccc(C(N)=O)cc3)cc2)CC1", 4.89],
  ["Cc1cc(Nc2cc(C3CC3)[nH]n2)nc(N2CCCC2)n1", 6.89],
  ["CC(C)(C)Nc1nc(Nc2ccc3c(c2)CS(=O)(=O)C3)nc2[nH]ccc12", 4.70],
  ["COc1ccc(Nc2nccc(N(C)c3n[nH]c4c(F)cccc34)n2)cc1S(C)(=O)=O", 5.00],
  ["N#Cc1ccc(C(=O)Nc2cccc(-c3cccc(CN4CCC(O)CC4)c3)c2)cc1", 4.80]
]}

Moving on to another compound below.
Sample "C=CC[C@@H]1CC=C[C@@H](C)N1C(=O)CCc1nnc(-c2ccc3c(c2)OCO3)o1" — what was its pIC50?
4.89

---

# Tested on: L. donovani-infected THP-1 macrophages, intracellular amastigote imaging
# test.summary: antileishmanial activity in infected THP-1 macrophages – imaging, THP-1 host macrophages, host toxicity (AID 1159564)
# condition.details: measured here: THP-1 host cell toxicity
Below is a list of entries, each paired with its recorded pIC50 value.
# log scale: pIC50 equals minus log10 of the concentration in mol/L

In the examples that follow, each entry is paired with its recorded pIC50.
{"columns": ["compound", "pIC50"],
 "data": [
  ["COc1cnc2ccc(=O)n(CCN3CCC(NC(=O)Cc4ccc(Cl)c(Cl)c4)CC3)c2c1", 4.60],
  ["COc1cccc(CCNC(=O)C(c2cn[nH]c2)N2CCN(c3ccc(Cl)cc3)CC2)c1 (stereo not given)", 4.60]
]}

Note: attention shifts to another entry.
Please report the recorded pIC50 for "COc1ccc(-c2cc(C)no2)cc1S(=O)(=O)Nc1ccc(F)c(Cl)c1" .
4.49

---

Item-by-item account of IC50
# Test system: L. donovani-infected THP-1 macrophages, intracellular amastigote imaging
# test.summary: antileishmanial activity in infected THP-1 macrophages – imaging, THP-1 host macrophages, host toxicity (AID 1159564)
# condition.details: measured here: THP-1 host cell toxicity
# value in µM; strip the unit string

Entry O=C(NC(CO)c1ccc(F)cc1)c1ccc(-c2c[nH]c3ncccc23)s1 (configuration not stated) has what IC50?
10

Likewise for "O=c1oc2ccccc2n1C1CCN(Cc2ccccc2-c2cccnc2)CC1" ?
13

---

# Tested on: L. donovani-infected THP-1 macrophages, intracellular amastigote imaging
# test.summary: antileishmanial activity in infected THP-1 macrophages – imaging, THP-1 host macrophages, host toxicity (AID 1159564)
# condition.details: measured here: THP-1 host cell toxicity
property.label: pIC50
# pIC50 = -log10(concentration in molar units)

A selection of reference data follows.
{"columns": ["compound", "reading"],
 "data": [
  ["Cc1cc(=O)n2nc(Oc3ccc(C#N)cc3Cl)sc2n1", 4.49],
  ["O=C(Nc1cccc(F)c1)N1CCC(Oc2cccc(-c3cccnc3)c2)CC1", 4.70],
  ["O=c1cc(NCCCNC2CCOc3c(I)cc(Cl)cc32)[nH]c2ccccc12 (stereo unspecified)", 4.70]
]}

Moving on to the next compound.
Returns the measured pIC50 for the input compound. Input: "CN(C)CCN(C)Cc1ccc(F)cc1NS(=O)(=O)c1ccc(Cl)c(Cl)c1"
4.49

---

# Test system: L. donovani-infected THP-1 macrophages, intracellular amastigote imaging
# test.summary: antileishmanial activity in infected THP-1 macrophages – imaging, THP-1 host macrophages, host toxicity (AID 1159564)
# condition.details: measured here: THP-1 host cell toxicity
Entries annotated with measured IC50

Example compounds with recorded IC50:
{"columns": ["compound", "reading"],
 "data": [
  ["O=C(c1cc2cc(Cl)ccc2[nH]1)N1CCCCC1c1cccnc1 (configuration not stated)", "16 µM"],
  ["C=CCN(Cc1cccs1)C(=O)CSc1nnc(-c2ccc3c(c2)OCO3)o1", "> 50 µM"],
  ["CN(Cc1ccccc1)Cc1nnnn1C1CCN(Cc2ccc(-n3ccnc3)cc2)CC1", "32 µM"],
  ["O=C(c1cccc(Nc2ncc(-c3ccc4c(c3)OCO4)cn2)c1)N1CCOCC1", "63 µM"],
  ["NCc1ccc2c(Cl)cc(Cl)c(O)c2n1", "20 µM"],
  ["CC(C)(C)CC(=O)NCCc1csc(-c2ccc(F)cc2)n1", "16 µM"],
  ["CCC(=O)N1N=C(c2ccc3c(c2)CCCC3)Sc2c1ncn2C(=O)CC", "> 50 µM"],
  ["CN(Cc1nc2c(C(=O)N3CCN(Cc4ccccc4)CC3)cccc2[nH]1)C1CCCc2cccnc21 (configuration not stated)", "10 µM"]
]}

Query (compound): "C[C@@H](Oc1cc(-n2cnc3cc(N)ccc32)sc1C(N)=O)c1ccccc1Cl" ; field requested: IC50
25 µM

Next: "COc1ccc2ncc(=O)n(CCN3CCC(NCc4ccc(-c5cccs5)cc4)CC3)c2n1"
10 µM

Then this compound: "CCS(=O)(=O)c1cccc(C(=O)Nc2nc(-c3ccccn3)cs2)c1"
20 µM

One more compound: "CC(=Cc1ccccc1)CN1CCC(=O)N(Cc2cccnc2)CC1"
40 µM

What do you have for Clc1ccc(C(CC2CCCCO2)Cn2cncn2)c(Cl)c1 (configuration not stated) ?
> 50 µM

// next record "COc1ccc(OC)c2c(=O)c(Cc3ccccc3)c(C)[nH]c12"
> 50 µM

Again, but for "Cn1ccnc1-c1nc(NCc2ccccc2Cl)cc(C2CC2)n1"
7.9 µM

Queued: O=C(CC1(O)C(=O)N(Cc2cccs2)c2ccc(Br)cc21)c1cccnc1 (configuration not stated)
20 µM

Another compound to look at: CC(C)c1cc(C(=O)N2CCCC(c3cc4ncccc4[nH]3)C2)on1 (configuration not stated)
> 50 µM

Can you check "CC(C)(C)C(=O)NCCc1csc(-c2ccc(F)cc2)n1" next?
> 50 µM
